# Test system: A498 renal
# PROCEDURE_TEXT: NCI tumour cell line growth inhibition, 48 h; in the data active = GI50 below about 0.43 µM; inactive = the rest
Possible outcomes: active, inactive

[[record]]
molecule = "CCN(CC)CCC(=O)Nc1ccc(Cn2nnc3c2C(=O)c2nnn(Cc4ccc(NC(=O)CCN(CC)CC)cc4)c2C3=O)cc1"
class_assignment = "inactive"

[[record]]
molecule = "COc1cc2c3c(n(CCCNCCO)c(=O)c2cc1OC)-c1cc2c(cc1C3=O)OCO2"
class_assignment = "active"

[[record]]
molecule = "C/C(=C(/c1ccc(O)cc1)c1ccc(OCCN2CCCC2)cc1)c1ccccc1"
class_assignment = "inactive"

[[record]]
molecule = "CC(C)OP(=O)(OC(C)C)C(N(C)C)P(=O)(OC(C)C)OC(C)C.[Cl][Sn]([Cl])([Cl])[c]1ccccc1"
class_assignment = "inactive"

[[record]]
molecule = "O=C(/C=C/N1CCN(c2cccc(C(F)(F)F)c2)CC1)c1ccc(Cl)cc1Cl"
class_assignment = "inactive"

[[record]]
molecule = "COc1ccc(C[C@H]2C[C@@H](O)[C@@H](C)C/C=C/Cc3cccc(O)c3C(=O)O2)cn1"
class_assignment = "inactive"

[[record]]
molecule = "CN1C(=O)c2cc(Cl)nc3c(NC(=O)c4cccc(Cl)c4)c(Cl)c(NC(=O)c4cccc(Cl)c4)c1c23"
class_assignment = "inactive"

[[record]]
molecule = "COC(=O)[C@H](Cc1ccccc1)NC(=O)c1csc([C@@H](C[C@H](C(C)C)N(C)C(=O)[C@@H](NC(=O)[C@H]2CCCCN2C)C2CC2)OC(C)=O)n1"
class_assignment = "active"

[[record]]
molecule = "O=C1c2cccnc2C(=O)c2c1c(C(=O)OCCCN1CCOCC1)c1ccccn21"
class_assignment = "active"

[[record]]
molecule = "CN1CCCC1c1cccnc1.O=C(O)c1ccccc1O.O=C([O-])c1ccccc1[OH2+].O=C([O-])c1ccccc1[OH2+].O=C([O-])c1ccccc1[OH2+].[Mn+2] (stereo not drawn)"
class_assignment = "inactive"

[[record]]
molecule = "Cc1ccc(NCSc2ccc(Cl)cc2)cc1"
class_assignment = "inactive"

[[record]]
molecule = "COc1ccccc1C1C(C#N)=C(N)OC2=C1C(=O)CCC2 (stereo not drawn)"
class_assignment = "inactive"

[[record]]
molecule = "CCCCCCCCCCCCCCCC[N+]1(CC)CCCC1"
class_assignment = "active"

